assayed.target: F508del/F508del CFTR (Homo sapiens, UniProt P13569, DEL508-508)
Construct: cells isolated from CF patients with the homozygous mutation; endogenous in cells; host or cells: primary human bronchial epithelial (hBE) cells from CF patients homozygous for F508del
Sequence (P13569 with tags, fused parts or gaps DEL508-508): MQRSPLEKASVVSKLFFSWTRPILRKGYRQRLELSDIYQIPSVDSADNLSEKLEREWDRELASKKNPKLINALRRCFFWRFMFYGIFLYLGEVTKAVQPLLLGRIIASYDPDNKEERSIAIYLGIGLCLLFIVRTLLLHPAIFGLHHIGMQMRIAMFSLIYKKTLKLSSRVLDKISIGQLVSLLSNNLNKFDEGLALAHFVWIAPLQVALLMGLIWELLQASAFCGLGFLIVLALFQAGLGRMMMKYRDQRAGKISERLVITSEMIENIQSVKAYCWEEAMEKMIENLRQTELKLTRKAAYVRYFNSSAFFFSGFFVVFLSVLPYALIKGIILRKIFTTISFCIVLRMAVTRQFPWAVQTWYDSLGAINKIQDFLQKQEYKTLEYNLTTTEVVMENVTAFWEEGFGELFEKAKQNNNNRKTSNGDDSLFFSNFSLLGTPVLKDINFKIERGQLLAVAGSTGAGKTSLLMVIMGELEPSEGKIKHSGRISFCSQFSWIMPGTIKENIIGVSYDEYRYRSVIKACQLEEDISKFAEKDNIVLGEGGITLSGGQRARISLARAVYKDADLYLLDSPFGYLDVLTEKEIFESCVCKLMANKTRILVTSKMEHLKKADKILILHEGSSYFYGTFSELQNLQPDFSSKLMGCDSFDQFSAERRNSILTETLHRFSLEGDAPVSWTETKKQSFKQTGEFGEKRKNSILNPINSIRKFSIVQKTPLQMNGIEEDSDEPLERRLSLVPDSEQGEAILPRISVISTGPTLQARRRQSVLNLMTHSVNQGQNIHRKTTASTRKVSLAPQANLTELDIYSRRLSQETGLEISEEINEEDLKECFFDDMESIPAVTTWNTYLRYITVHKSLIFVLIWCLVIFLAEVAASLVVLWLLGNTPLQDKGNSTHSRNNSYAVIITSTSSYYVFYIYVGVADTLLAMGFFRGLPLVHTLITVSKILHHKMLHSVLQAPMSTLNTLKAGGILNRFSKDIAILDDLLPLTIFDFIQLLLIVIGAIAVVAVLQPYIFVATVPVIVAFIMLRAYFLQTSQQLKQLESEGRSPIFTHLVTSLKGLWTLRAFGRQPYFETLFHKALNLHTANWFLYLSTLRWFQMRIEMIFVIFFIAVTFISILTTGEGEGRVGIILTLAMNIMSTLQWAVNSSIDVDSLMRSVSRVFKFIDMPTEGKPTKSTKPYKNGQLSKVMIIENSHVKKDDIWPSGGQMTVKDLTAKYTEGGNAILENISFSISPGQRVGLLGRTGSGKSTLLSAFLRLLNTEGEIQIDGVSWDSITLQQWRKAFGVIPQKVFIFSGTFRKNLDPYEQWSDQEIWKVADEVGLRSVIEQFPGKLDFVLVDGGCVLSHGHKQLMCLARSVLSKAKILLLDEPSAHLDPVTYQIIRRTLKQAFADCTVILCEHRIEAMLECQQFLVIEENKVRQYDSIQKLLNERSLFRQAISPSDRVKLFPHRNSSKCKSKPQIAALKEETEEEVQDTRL
method: Trans-Epithelial Current Clamp (TECC) assay using primary human bronchial epithelial cells
Assay type: cell-based
setup.conditions: maximum percent activity relative to positive control (co-corrector 0.15 μM + potentiator 0.45 μM = 100%); primary hBE cells F508del/F508del
measure: Emax (% Dual)

P. COc1ccc(C)cc1[C@]1(C(=O)NS(=O)(=O)c2cccc3nc(C)ccc23)CC1c1cccc(Cl)n1 (stereo in doubt) [Example 105]
Q. COc1ncc([C@H]2C[C@@]2(C(=O)NS(=O)(=O)c2cccc3nc(C)ccc23)c2cc(C)ccc2OC)cn1 (single isomer, unassigned) [Example 38]
R. COc1ccc(C)cc1[C@]1(C(=O)NS(=O)(=O)c2cccc3nc(C)ccc23)C[C@@H]1c1ccc(C)cc1 (single isomer, unassigned) [Example 7]
Ask | Give the ascending ranking of the items by reported Emax (% Dual). Order the labels as requested and give them as your answer.
Reply | Q, P, R

A. COc1ccc(C)cc1[C@@]1(C(=O)NS(=O)(=O)c2cccc3nc(C)ccc23)C[C@H]1c1ccccn1 [Example 13]
B. COc1ccc(C)cc1[C@@]1(C(=O)NS(=O)(=O)c2cccc3nc(C)ccc23)C[C@H]1c1ccccc1 (racemic) [Example 1]
Ask | For the pair A and B , which entry has the numerically smaller recorded Emax (% Dual)? Identify your pick by its label.
Reply | A
(A: 232 % Dual, B: 389 % Dual)

###

assayed.target: F508delCFTR (Homo sapiens, UniProt P13569, DEL508-508)
Construct: expressed in transfected cells; host or cells: CFBE41o- human lung-derived epithelial cell line, doxycycline-inducible expression
method: Cell Surface Expression-Horse Radish Peroxidase (CSE-HRP) assay in CFBE41o-F508delCFTR-HRP cells
Format: cell-based
setup.conditions: without co-corrector; CFBE41o-F508delCFTR-HRP cells, 18-24 hours at 33° C., luminescence; read-out: EC50 (without co-corrector)
pEC50: −log10 of the molar value.
measure: pEC50

P. COc1ccc(C)cc1[C@@]1(C(=O)NS(=O)(=O)c2cccc3nc(C)ccc23)C[C@H]1c1ccc(C)nc1OC (single isomer, unassigned)
Q. COc1ccc(C)cc1[C@]1(C(=O)NS(=O)(=O)c2cccc3nc(C)ccc23)C[C@@H]1c1cncc(F)c1 (single isomer, unassigned)
Ask | For this pair, P and Q , which shows a numerically higher pEC50? Identify your pick by its label.
Reply | P

I. COc1cncc([C@@H]2C[C@]2(C(=O)NS(=O)(=O)c2cccc3nc(C)ccc23)c2cc(C)ccc2OC)n1 (single isomer, unassigned)
II. COc1ccc(C)cc1[C@@]1(C(=O)NS(=O)(=O)c2cccc3nc(C)ccc23)C[C@H]1c1cnc(C)cn1 (single isomer, unassigned)
Ask | For this pair, I and II , which shows a numerically higher pEC50? Identify your pick by its label.
Reply | I

###

assayed.target: F508del/F508del CFTR (Homo sapiens, UniProt P13569, DEL508-508)
Construct: cells isolated from CF patients with the homozygous mutation; endogenous in cells
method: Trans-Epithelial Current Clamp (TECC) assay using primary human bronchial epithelial cells
setup.conditions: primary hBE cells homozygous F508del/F508del; test C2 corrector with co-corrector and potentiator, 18-24 hours at 37° C.; equivalent CFTR current (IEQ)/AUC
measure: EC50 (nM)

Here are 3 compounds together with their reported answers.
In [3]: df
Out[3]:
                                   compound  result_value
0  COc1ccc(C)cc1[C@]1(C(=O)NS(=O)(=O)c2cccc3nc(C)ccc23)C[C@@H]1c1ccccc1C(F)(F)F (racemic) [Example 29]           7.7
1  COc1cncc([C@@H]2C[C@]2(C(=O)NS(=O)(=O)c2cccc3nc(C)ccc23)c2cc(C)ccc2OC)c1 (racemic) [Example 41]           110
2  COc1ccc(C)cc1[C@]1(C(=O)NS(=O)(=O)c2cccc3nc(C)ccc23)C[C@@H]1c1cnc(OC)c(F)c1           2.4

A. COc1cnc([C@H]2C[C@@]2(C(=O)NS(=O)(=O)c2cccc3nc(C)ccc23)c2cc(C)ccc2OC)cn1 (single isomer, unassigned)
B. CCOc1nc(C2C[C@@]2(C(=O)NS(=O)(=O)c2cccc3nc(C)ccc23)c2cc(C)ccc2OC)ccc1F (stereo in doubt)
Ask | For the pair A and B , which entry has the numerically smaller recorded EC50? Identify your pick by its label.
Reply | B

###

assayed.target: F508del/F508del CFTR (Homo sapiens, UniProt P13569, DEL508-508)
Construct: cells isolated from CF patients with the homozygous mutation; endogenous in cells; host or cells: primary human bronchial epithelial (hBE) cells from CF patients homozygous for F508del
method: Trans-Epithelial Current Clamp (TECC) assay using primary human bronchial epithelial cells
Type: cell-based
setup.conditions: maximum percent activity relative to positive control (co-corrector 0.15 μM + potentiator 0.45 μM = 100%); primary hBE cells F508del/F508del
measure: Emax (% Dual)

Here are 2 compounds together with their reported answers.
>>> df
                                   compound   units  result_value
0  COCc1cccc([C@H]2C[C@@]2(C(=O)NS(=O)(=O)c2cccc3nc(C)ccc23)c2cc(C)ccc2OC)n1 [Example 90]  % Dual           348
1  COc1nccc([C@@H]2C[C@]2(C(=O)NS(=O)(=O)c2cccc3nc(C)ccc23)c2cc(C)ccc2OC)n1 (single isomer, unassigned) [Example 99]  % Dual           126

1. COc1ccc(C)cc1[C@]1(C(=O)NS(=O)(=O)c2cccc3nc(C)ccc23)C[C@@H]1c1cnc(C(C)C)cn1 (single isomer, unassigned) [Example 64]
2. COc1cncc([C@@H]2C[C@]2(C(=O)NS(=O)(=O)c2cccc3nc(C)ccc23)c2cc(C)ccc2OC)c1 (single isomer, unassigned) [Example 51]
3. COc1ccc([C@@H]2C[C@]2(C(=O)NS(=O)(=O)c2cccc3nc(C)ccc23)c2cc(C)ccc2OC)cn1 [Example 33]
Ask | Ascending by Emax (% Dual), please. Order the labels as requested and give them as your answer.
Reply | 2, 3, 1
(2: 135 % Dual, 3: 215 % Dual, 1: 342 % Dual)

a. COc1ccc([C@H]2C[C@@]2(C(=O)NS(=O)(=O)c2cccc3nc(C)ccc23)c2cc(C)ccc2OC)c(C)n1 [Example 72]
b. CCOc1ccc([C@H]2C[C@@]2(C(=O)NS(=O)(=O)c2cccc3nc(C)ccc23)c2cc(C)ccc2OC)cn1 [Example 58]
Ask | For the pair a and b , which entry has the numerically smaller recorded Emax (% Dual)? Identify your pick by its label.
Reply | b
(b: 246 % Dual, a: 359 % Dual)

###

assayed.target: F508delCFTR (Homo sapiens, UniProt P13569, DEL508-508)
Construct: expressed in transfected cells; host or cells: CFBE41o- human lung-derived epithelial cell line, doxycycline-inducible expression
method: Cell Surface Expression-Horse Radish Peroxidase (CSE-HRP) assay in CFBE41o-F508delCFTR-HRP cells
Format: cell-based
setup.conditions: with co-corrector (2 μM); CFBE41o-F508delCFTR-HRP cells, 18-24 hours at 33° C., luminescence; read-out: EC50 (with co-corrector)
measure: EC50 (nM)

A. COc1ccc(C)cc1[C@]1(C(=O)NS(=O)(=O)c2cccc3nc(C)ccc23)C[C@@H]1c1cc(F)cnc1OC
B. CCOc1cnc([C@@H]2C[C@]2(C(=O)NS(=O)(=O)c2cccc3nc(C)ccc23)c2cc(C)ccc2OC)cn1 (single isomer, unassigned) [Example 65]
C. COc1cncc([C@H]2C[C@@]2(C(=O)NS(=O)(=O)c2cccc3nc(C)ccc23)c2cc(C)ccc2OC)c1 (single isomer, unassigned)
Ask | Arrange by EC50, high to low. Order the labels as requested and give them as your answer.
Reply | C, A, B
(C: 2140 nM, A: 945 nM, B: 586 nM)

###

assayed.target: F508delCFTR (Homo sapiens, UniProt P13569, DEL508-508)
Construct: expressed in transfected cells; host or cells: CFBE41o- human lung-derived epithelial cell line, doxycycline-inducible expression
method: Cell Surface Expression-Horse Radish Peroxidase (CSE-HRP) assay in CFBE41o-F508delCFTR-HRP cells
Type: cell-based
setup.conditions: with co-corrector (2 μM); normalized to on-plate positive control corrector (2 μM)
measure: Maximum % activity (with co-corrector) (%)

Here are 3 compounds together with their reported answers.
In [3]: df
Out[3]:
                                   compound                                 measure  result_value
0  COc1ccc(C)cc1[C@@]1(C(=O)NS(=O)(=O)c2cccc3nc(C)ccc23)C[C@H]1c1cnc(C(C)C)cn1 (single isomer, unassigned)  Maximum % activity (with co-corrector)           847
1  COc1ccc(C)cc1[C@@]1(C(=O)NS(=O)(=O)c2cccc3nc(C)ccc23)C[C@H]1c1cncc(F)c1 (single isomer, unassigned)  Maximum % activity (with co-corrector)           625
2  COc1ccc(C)cc1[C@@]1(C(=O)NS(=O)(=O)c2cccc3nc(C)ccc23)C[C@H]1c1cncc(C)n1 (single isomer, unassigned)  Maximum % activity (with co-corrector)           427

I. COc1cnc([C@@H]2C[C@]2(C(=O)NS(=O)(=O)c2cccc3nc(C)ccc23)c2cc(C)ccc2OC)cn1 (single isomer, unassigned)
II. COc1nccc([C@@H]2C[C@]2(C(=O)NS(=O)(=O)c2cccc3nc(C)ccc23)c2cc(C)ccc2OC)n1 (single isomer, unassigned)
Ask | For the pair I and II , which entry has the numerically smaller recorded Maximum % activity (with co-corrector)? Identify your pick by its label.
Reply | II

These measurements were taken from patent US20240043386A1.
